Values were extracted from patent US20260132200A1.

Biological target: T1, human CD20 expressed on Raji cells (CD3-, CD20+ human B-cell line) (human, UniProt P11836 1-297)
T1 sequence: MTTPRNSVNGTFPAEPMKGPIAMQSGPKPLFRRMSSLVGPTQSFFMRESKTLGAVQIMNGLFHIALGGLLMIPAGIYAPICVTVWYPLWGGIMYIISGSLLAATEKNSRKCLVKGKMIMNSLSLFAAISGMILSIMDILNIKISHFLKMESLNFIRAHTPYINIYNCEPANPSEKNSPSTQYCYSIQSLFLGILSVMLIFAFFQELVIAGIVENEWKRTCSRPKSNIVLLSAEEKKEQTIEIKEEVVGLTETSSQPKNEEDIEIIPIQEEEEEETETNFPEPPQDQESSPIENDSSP
Test: FACS on Raji cells
Experimental endpoint: EC50 (nM)

Binder	Experimental endpoint	Numeric value
BS3/20-005 (bispecific antibody, V domains shown) VH 1: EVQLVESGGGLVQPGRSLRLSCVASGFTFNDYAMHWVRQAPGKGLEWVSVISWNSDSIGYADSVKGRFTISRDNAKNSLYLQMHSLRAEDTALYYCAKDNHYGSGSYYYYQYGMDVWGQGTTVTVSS VH 2: QVQLVESGGGVVQPGRSLRLACVASGFTFRSYGMHWVRQAPGKGLQWVAMIYYDGKNKYYADSVRGRFTISRDNSKNTLYLQMNNLRVEDTAMYFCARGPGYNWLDPWGQGTLVTVSS VL: EIVMTQSPATLSVSPGERATLSCRASQRISSNLAWYQQKPGQAPRLLIYGASTRATGSPARFSGSGSGTDFTLTISSLQSEDVAVYYCQQHHNWPLTFGGGTKVEIK	EC50	81.7
BS3/20-003 (bispecific antibody, V domains shown) VH 1: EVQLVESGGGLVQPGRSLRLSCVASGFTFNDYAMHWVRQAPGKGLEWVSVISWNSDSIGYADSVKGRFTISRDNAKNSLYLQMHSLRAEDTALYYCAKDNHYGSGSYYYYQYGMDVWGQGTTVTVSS VH 2: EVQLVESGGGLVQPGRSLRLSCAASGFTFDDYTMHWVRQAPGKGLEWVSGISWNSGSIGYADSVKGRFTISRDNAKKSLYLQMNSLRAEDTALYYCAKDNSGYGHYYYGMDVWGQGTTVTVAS VL: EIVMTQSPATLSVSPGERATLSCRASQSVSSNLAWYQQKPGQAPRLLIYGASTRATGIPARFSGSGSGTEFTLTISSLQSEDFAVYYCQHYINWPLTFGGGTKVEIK	EC50	92.4
